Target: T1, CRBN, Q96SW2;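 also: pooled lentiviral library of zinc finger degron-EGFP fusions in mCherry-positive Jurkat cells, FACS-sorted after compound exposure, with degron abundance counted by next-generation sequencing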
T1 chain: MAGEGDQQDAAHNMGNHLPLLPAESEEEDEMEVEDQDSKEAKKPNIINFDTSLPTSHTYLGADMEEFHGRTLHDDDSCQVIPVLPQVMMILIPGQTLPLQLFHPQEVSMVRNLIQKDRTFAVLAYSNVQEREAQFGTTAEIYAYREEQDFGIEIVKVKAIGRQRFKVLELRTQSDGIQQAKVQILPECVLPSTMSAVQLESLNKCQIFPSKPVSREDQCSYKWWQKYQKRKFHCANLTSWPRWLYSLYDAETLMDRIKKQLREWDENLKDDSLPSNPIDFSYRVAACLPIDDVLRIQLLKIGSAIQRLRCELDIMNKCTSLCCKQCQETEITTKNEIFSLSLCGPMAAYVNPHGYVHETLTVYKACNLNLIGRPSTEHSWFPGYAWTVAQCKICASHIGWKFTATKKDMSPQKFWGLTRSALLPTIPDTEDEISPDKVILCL
Test: log2 fold change of degron read counts, EGFP-low vs EGFP+ sorted cells (limma voom), compound-induced degradation; higher = more compound-induced degradation of the degron-EGFP fusion; degrons are variants of IKZF1/3 zinc finger 2; compound dose not given here
Details: Jurkat; 18 h; compound: compound 33 (diphenyl IMiD analogue)
In all, about 8,300 sequences were measured (“log2 fold change of degron read counts, EGFP-low vs EGFP+ sorted cells (limma voom), compound-induced degradation”: median about -1.1, highest 2% from about 3.2 on). The full list was thinned out, with the highest values kept by preference.
Use 1 when the recorded log2 fold change of degron read counts is no lower than -0.03; use 0 when it is lower.

• FRCPICGAVFTQKGNLLRHIKL [46F_47R_49P_50I_52G_53A_54V_55F_67L_, Q9UKT9] = 1
• FVCPICGAVFTQKGNLLRHIKL [46F_47V_49P_50I_52G_53A_54V_55F_67L_, Q9UKT9] = 1
• FTCEICGHLFTQKGNLLRHIKL [46F_47T_49E_50I_52G_53H_54L_55F_67L_, Q9UKT9] = 0
• FMCNICGAWFTQKGNLLRHIKL [46F_47M_49N_50I_52G_53A_54W_55F_67L_, Q9UKT9] = 0
• FKCPVCGAPFTQKGNLLRHIKL [46F_47K_49P_50V_52G_53A_54P_55F_67L_, Q9UKT9] = 1
• LYCEICGFWCTQKGNLLRHIKL [46L_47Y_49E_50I_52G_53F_54W_55C_67L_, Q9UKT9] = 1
• FKCEQCGAQFTQKGNLLRHIKL [46F_47K_49E_50Q_52G_53A_54Q_55F_67L_, Q9UKT9] = 0
